# measured target: Recombinant human IL-1beta (rhIL-1b) (human, UniProt P01584 117-269)
# measurement description: cell-based or functional assay
property label: % IL-6 production, supernatant 1:20 dilut. (%)

8.6.1 (antibody, human IgG4, V domains shown, lambda; also called 8.6.3) VH: QVQLQESGPGLVKPSETLSLTCTVSGGSVSSGGYYWSWVRQPPGKGLEWIGCIYFSESTNYNPSLKSRVTISVDTSKNQFSLKLSSVTAADTAVYYCARDPMHYYGMDVWGQGTTVTVSS VL: SFELTQPPSVSVSPGQTASITCSGDKLGDKFACWYQQKPGQSPVLVIYQDTKRPSGIPERISGSNSGNTATLTISGTQAMDEADYYCQAWDSSTYVVFGGGTKLTVL :: 23
